Collected Ki values appear next to each entry.
Target: Sushi domains (SD1/2) protein
Experiment: Fluorescence polarization (FP) competition assay with AJAP-1probe, calculated Ki
Assay type: binding
Conditions: Table 10, deep mutational scanning validation variants of APPWT; read-out: Ki (nM) mean ± SEM
Residues, ends and D or L forms follow the SMILES beside them.
property-name: Ki (nM)

{"columns": ["compound", "target-entity", "unit-name", "numeric-value"],
 "data": [
  ["CC(=O)N[C@@H](CCC(=O)O)C(=O)N[C@@H](CC(=O)O)C(=O)N[C@@H](CC(=O)O)C(=O)N[C@@H](Cc1c[nH]c2ccccc12)C(=O)N[C@@H](CC(=O)O)C(=O)N[C@H](C(=O)N[C@@H](Cc1c[nH]c2ccccc12)C(=O)N[C@@H](Cc1c[nH]c2ccccc12)C(=O)NCC(=O)NCC(=O)N[C@@H](C)C(=O)N[C@@H](CC(=O)O)C(=O)N[C@H](C(=O)N[C@@H](CC(=O)O)C(N)=O)[C@@H](C)O)C(C)C (Ac-EDDWDVWWGGADTD-NH2)", "Sushi domains (SD1/2) protein", "nM", 257],
  ["CC(=O)N[C@@H](CCC(=O)O)C(=O)N[C@@H](CC(=O)O)C(=O)N[C@@H](CC(=O)O)C(=O)N[C@@H](CO)C(=O)N[C@@H](CC(=O)O)C(=O)N[C@H](C(=O)N[C@@H](Cc1c[nH]c2ccccc12)C(=O)N[C@@H](Cc1c[nH]c2ccccc12)C(=O)NCC(=O)NCC(=O)N[C@@H](CO)C(=O)N[C@@H](CC(=O)O)C(=O)N[C@H](C(=O)N[C@@H](CC(=O)O)C(N)=O)[C@@H](C)O)C(C)C (Ac-EDDSDVWWGGSDTD-NH2)", "Sushi domains (SD1/2) protein", "nM", 204],
  ["CC(=O)N[C@@H](CCC(=O)O)C(=O)N[C@@H](CC(=O)O)C(=O)N[C@@H](CC(=O)O)C(=O)N[C@@H](CO)C(=O)N[C@@H](CC(=O)O)C(=O)N[C@H](C(=O)N[C@@H](Cc1c[nH]c2ccccc12)C(=O)N[C@@H](Cc1c[nH]c2ccccc12)C(=O)NCC(=O)N1CCC[C@H]1C(=O)N[C@@H](C)C(=O)N[C@@H](CC(=O)O)C(=O)N[C@H](C(=O)N[C@@H](CC(=O)O)C(N)=O)[C@@H](C)O)C(C)C (Ac-EDDSDVWWGPADTD-NH2)", "Sushi domains (SD1/2) protein", "nM", 332]
]}

###

Target: Sushi domains (SD1/2) protein
Experiment: Fluorescence polarization (FP) competition assay with AJAP-1probe, calculated Ki
Type: binding
Settings: Table 4, truncation and elongation scans of APP epitope; read-out: Ki (nM) mean ± SEM
Residues, ends and D or L forms follow the SMILES beside them.
property-name: Ki (nM)

{"columns": ["compound", "target-entity", "property-name", "limit-operator", "numeric-value"],
 "data": [
  ["CC(=O)N[C@@H](C)C(=O)N[C@@H](CCC(=O)O)C(=O)N[C@@H](CCC(=O)O)C(=O)N[C@@H](CC(=O)O)C(=O)N[C@@H](CC(=O)O)C(=O)N[C@@H](CO)C(=O)N[C@@H](CC(=O)O)C(=O)N[C@H](C(=O)N[C@@H](Cc1c[nH]c2ccccc12)C(=O)N[C@@H](Cc1c[nH]c2ccccc12)C(=O)NCC(=O)NCC(=O)N[C@@H](C)C(=O)N[C@@H](CC(=O)O)C(=O)N[C@H](C(=O)N[C@@H](CC(=O)O)C(=O)N[C@@H](Cc1ccc(O)cc1)C(=O)N[C@@H](C)C(=O)N[C@@H](CC(=O)O)C(N)=O)[C@@H](C)O)C(C)C", "Sushi domains (SD1/2) protein", "Ki", "=", 237],
  ["CC(=O)N[C@@H](CCC(=O)O)C(=O)N[C@@H](CCC(=O)O)C(=O)N[C@@H](CC(=O)O)C(=O)N[C@@H](CC(=O)O)C(=O)N[C@@H](CO)C(=O)N[C@@H](CC(=O)O)C(=O)N[C@H](C(=O)N[C@@H](Cc1c[nH]c2ccccc12)C(=O)N[C@@H](Cc1c[nH]c2ccccc12)C(=O)NCC(N)=O)C(C)C (Ac-EEDDSDVWWG-NH2)", "Sushi domains (SD1/2) protein", "Ki", "=", 12800],
  ["CC(=O)NCC(=O)NCC(=O)N[C@@H](C)C(=O)N[C@@H](CC(=O)O)C(=O)N[C@H](C(=O)N[C@@H](CC(=O)O)C(=O)N[C@@H](Cc1ccc(O)cc1)C(=O)N[C@@H](C)C(=O)N[C@@H](CC(=O)O)C(N)=O)[C@@H](C)O (Ac-GGADTDYAD-NH2)", "Sushi domains (SD1/2) protein", "Ki", ">", 62500]
]}

###

Target: Sushi domains (SD1/2) protein
Assay: Fluorescence polarization (FP) competition assay with AJAP-1probe, calculated Ki
Type: binding
Conditions: Table 6, elongation and truncation scan of PIANP binding epitope; read-out: Ki (nM) mean ± SEM
Residues, ends and D or L forms follow the SMILES beside them.

{"columns": ["compound", "Ki / nM"],
 "data": [
  ["CC[C@H](C)[C@H](NC(=O)[C@H](C)NC(=O)[C@H](Cc1c[nH]c2ccccc12)NC(=O)[C@@H]1CCCN1C(C)=O)C(=O)N[C@H](C(=O)N[C@@H](Cc1c[nH]c2ccccc12)C(=O)NCC(=O)N1CCC[C@H]1C(=O)N[C@H](C(=O)N[C@H](C(=O)N[C@@H](CO)C(=O)N[C@@H](CCCNC(=N)N)C(=O)N[C@@H](CCC(=O)O)C(=O)N[C@@H](CC(=O)O)C(=O)NCC(=O)NCC(=O)N[C@@H](CC(=O)O)C(=O)N1CCC[C@H]1C(=O)N[C@@H](CC(N)=O)C(N)=O)C(C)C)[C@@H](C)O)C(C)C (Ac-PWAIVWGPTVSREDGGDPN-NH2)", 579]
]}

###

Target: Sushi domains (SD1/2) protein
Assay: Fluorescence polarization (FP) competition assay with AJAP-1probe, calculated Ki
Type: binding
Settings: Table 4, truncation and elongation scans of APP epitope; read-out: Ki (nM) mean ± SEM
Residues, ends and D or L forms follow the SMILES beside them.
Collected Ki values appear next to each entry.

{"columns": ["compound", "Ki / nM"],
 "data": [
  ["CC(=O)N[C@@H](CCC(=O)O)C(=O)N[C@@H](CCC(=O)O)C(=O)N[C@@H](CC(=O)O)C(=O)N[C@@H](CC(=O)O)C(=O)N[C@@H](CO)C(=O)N[C@@H](CC(=O)O)C(=O)N[C@H](C(=O)N[C@@H](Cc1c[nH]c2ccccc12)C(=O)N[C@@H](Cc1c[nH]c2ccccc12)C(=O)NCC(=O)NCC(=O)N[C@@H](C)C(=O)N[C@@H](CC(=O)O)C(=O)N[C@H](C(=O)N[C@@H](CC(=O)O)C(N)=O)[C@@H](C)O)C(C)C (Ac-EEDDSDVWWGGADTD-NH2)", 341],
  ["CC(=O)N[C@@H](CCC(=O)O)C(=O)N[C@@H](CC(=O)O)C(=O)N[C@@H](CC(=O)O)C(=O)N[C@@H](CO)C(=O)N[C@@H](CC(=O)O)C(=O)N[C@H](C(=O)N[C@@H](Cc1c[nH]c2ccccc12)C(=O)N[C@@H](Cc1c[nH]c2ccccc12)C(=O)NCC(=O)NCC(=O)N[C@@H](C)C(=O)N[C@@H](CC(=O)O)C(=O)N[C@H](C(=O)N[C@@H](CC(=O)O)C(=O)N[C@@H](Cc1ccc(O)cc1)C(=O)N[C@@H](C)C(=O)N[C@@H](CC(=O)O)C(N)=O)[C@@H](C)O)C(C)C (Ac-EDDSDVWWGGADTDYAD-NH2)", 281]
]}

###

Target: Sushi domains (SD1/2) protein
Assay: Fluorescence polarization (FP) competition assay with AJAP-1probe, calculated Ki
Format: binding
Details: Table 13, peptides for affinity maturation; read-out: Ki (nM) mean ± SEM
Residues, ends and D or L forms follow the SMILES beside them.

{"columns": ["compound", "Ki [nM]"],
 "data": [
  ["CC[C@H](C)[C@H](NC(=O)[C@H](Cc1ccc(O)cc1)NC(=O)[C@H](CC(=O)O)NC(=O)[C@H](CC(=O)O)NC(=O)[C@H](CCC(=O)O)NC(C)=O)C(=O)N[C@@H](CC(=O)O)C(=O)N[C@@H](Cc1c[nH]c2ccccc12)C(=O)N[C@@H](Cc1ccc(O)cc1)C(=O)N[C@@H](CC(=O)O)C(=O)N[C@@H](CO)C(=O)N[C@@H](CC(=O)O)C(=O)N[C@@H](CC(=O)O)C(=O)N[C@@H](CC(=O)O)C(N)=O [Peptide 18] (Ac-EDDYIDWYDSDDD-NH2)", 4.6]
]}

###

Collected Ki values appear next to each entry.
Target: Sushi domains (SD1/2) protein
Assay: Fluorescence polarization (FP) competition assay with AJAP-1probe, calculated Ki
Type: binding
Conditions: Table 16, ncAAs incorporated peptides; read-out: Ki (nM) mean ± SEM
Description: Fluorescence polarization (FP). FP assay was employed to determine the binding affinity of peptides in flat bottom black 384-well plates (Corning Life Science) using a Safire2 plate reader (Tecan). […] The fluorescence polarization values were measured using excitation/emission wavelengths of 530/580 nm. The instrumental Z-factor was adjusted to obtain the maximum fluorescence intensity and the G-factor was calibrated to give an initial millipolarization value of 20 mP. […]
Residues, ends and D or L forms follow the SMILES beside them. *: point of attachment. Bn = c1ccc(C*)cc1

{"columns": ["compound", "Ki"],
 "data": [
  ["CC(=O)N[C@@H](CCC(=O)O)C(=O)N[C@@H](CC(=O)O)C(=O)N[C@@H](CC(=O)O)C(=O)N[C@@H](CO)C(=O)N[C@@H](Cc1ccc(OCc2ccccc2)cc1)C(=O)N[C@H](C(=O)N[C@@H](Cc1c[nH]c2ccccc12)C(=O)N[C@@H](Cc1c[nH]c2ccccc12)C(=O)NCC(=O)NCC(=O)N[C@@H](C)C(=O)N[C@@H](CC(=O)O)C(=O)N[C@H](C(=O)N[C@@H](CC(=O)O)C(N)=O)[C@@H](C)O)C(C)C (Ac-EDDSY(Bn)VWWGGADTD-NH2)", "28 nM"],
  ["CCOc1ccc(C[C@H](NC(=O)[C@H](Cc2c[nH]c3ccccc23)NC(=O)[C@H](Cc2c[nH]c3ccccc23)NC(=O)[C@@H](NC(=O)[C@H](CC(=O)O)NC(=O)[C@H](CO)NC(=O)[C@H](CC(=O)O)NC(=O)[C@H](CC(=O)O)NC(=O)[C@H](CCC(=O)O)NC(C)=O)C(C)C)C(=O)NCC(=O)N[C@@H](C)C(=O)N[C@@H](CC(=O)O)C(=O)N[C@H](C(=O)N[C@@H](CC(=O)O)C(N)=O)[C@@H](C)O)cc1 (Ac-EDDSDVWWY(Et)GADTD-NH2)", "113 nM"],
  ["CC[C@H](C)[C@H](NC(=O)[C@H](Cc1ccc(OCc2ccccc2)cc1)NC(=O)[C@H](CC(=O)O)NC(=O)[C@H](CC(=O)O)NC(=O)[C@H](CC(=O)O)NC(=O)[C@H](CCC(=O)O)NC(C)=O)C(=O)N[C@@H](CC(=O)O)C(=O)N[C@@H](Cc1c[nH]c2ccccc12)C(=O)N[C@@H](Cc1ccc(O)cc1)C(=O)N[C@@H](CC(=O)O)C(=O)N[C@@H](CO)C(=O)N[C@@H](CC(=O)O)C(=O)N[C@@H](CC(=O)O)C(=O)N[C@@H](CC(=O)O)C(N)=O [Peptide 33]", "9.3 nM"]
]}

meta.source: patent US20260193293A1
